Field: selectivity ratio. Provide a value for each of the molecules that follow.
- protocol_details: in vitro
- condition_parameters: human
- Description: Selectivity index, ratio of IC50 for HEK293T cells to IC50 for ring stage of Plasmodium falciparum W2 infected in human RBC

// selectivity ratio lookup, key: COc1cc(NC(C)CCCNc2c(NCCCC(C)Nc3cc(OC)cc4cccnc34)c(=O)c2=O)c2ncccc2c1 (configuration not stated) > 22

One more molecule: O=C(NCCNc1ccnc2cc(Cl)ccc12)[C@H](Cc1ccccc1)Nc1c(N[C@@H](Cc2ccccc2)C(=O)NCCNc2ccnc3cc(Cl)ccc23)c(=O)c1=O > 70

One more molecule: COc1c(NCCNc2ccnc3cc(Cl)ccc23)c(=O)c1=O > 32

One more molecule: O=c1c(N2CCC(Nc3ccnc4cc(Cl)ccc34)CC2)c(N2CCC(Nc3ccnc4cc(Cl)ccc34)CC2)c1=O > 476

One more molecule: O=c1c(NCCCNc2ccnc3cc(Cl)ccc23)c(NCCCNc2ccnc3cc(Cl)ccc23)c1=O > 505

One more molecule: O=c1c(NCCNc2ccnc3cc(Cl)ccc23)c(NCCNc2ccnc3cc(Cl)ccc23)c1=O 25

One more molecule: CCCCOc1c(N2CCN(c3ccnc4cc(Cl)ccc34)CC2)c(=O)c1=O > 6

One more molecule: O=c1c(NCCCCNc2ccnc3cc(Cl)ccc23)c(NCCCCNc2ccnc3cc(Cl)ccc23)c1=O > 526

One more molecule: CCCCOc1c(N2CCC(Nc3ccnc4cc(Cl)ccc34)CC2)c(=O)c1=O 8

One more molecule: CCCCOc1c(NCCNc2ccnc3cc(Cl)ccc23)c(=O)c1=O > 24

One more molecule: CCCCOc1c(NCCCC(C)Nc2cc(OC)cc3cccnc23)c(=O)c1=O (configuration not stated) > 2

One more molecule: COc1c(NCCCNc2ccnc3cc(Cl)ccc23)c(=O)c1=O > 27
